methodDescription: Solubility, automated shake flask method with UV quantitation
Assay type: physicochemical
experimentalParameters: aqueous buffer, thermodynamic from solid; McIlvaine buffer pH 7.4, 2 h, room temperature

molecule	solubility at 2 h
CO[C@H]1COCC[C@H]1NC1CCN(C(=O)c2ncnc(NC[C@H]3CCC[C@@H](c4ccc(C)cc4)O3)c2C)CC1.O=C(O)CC(O)(CC(=O)O)C(=O)O [citrate salt 1]	> 1000 µg/mL

###

methodDescription: Oral pharmacokinetics in rat
Format: in vivo, Wistar(Han) rats
experimentalParameters: male, Wistar(Han), plasma, 20 umol/kg, oral dose 20 μmol/kg of compound I, mean values
metric: AUC(0-inf)

>>> print(df.to_string())
                                   compound  testresult
0  CO[C@H]1COCC[C@H]1NC1CCN(C(=O)c2ncnc(NC[C@H]3CCC[C@@H](c4ccc(C)cc4)O3)c2C)CC1 [compound I]   2.27 µM·h

###

methodDescription: Oral pharmacokinetics in rat
Format: in vivo, Wistar(Han) rats
experimentalParameters: male, Wistar(Han), plasma, 20 umol/kg, oral dose 20 μmol/kg of citrate salt 1, mean values
Excerpt: The pharmacokinetics of the test compound following single intravenous (IV) or oral (PO) doses were examined in • female BALB/c mice (average weight: 25 g) • male Wistar(Han) rats (average weight: 260 g) • male and female Göttingen Minipigs (average weight: 24 kg) • male beagle dogs (average weight: 15 kg) All non-rodent species were fasted overnight prior to dosing, while mice and rats had food and water available ad libitum. […]

compound	AUC(0-inf) (µM·h)
CO[C@H]1COCC[C@H]1NC1CCN(C(=O)c2ncnc(NC[C@H]3CCC[C@@H](c4ccc(C)cc4)O3)c2C)CC1.O=C(O)CC(O)(CC(=O)O)C(=O)O [citrate salt 1]	1.71
